test: Antiinflammatory activity against FMLP/CB stimulated human neutrophils assessed as inhibition of superoxide anion generation at 10 ug/mL relative to control; type: functional; details: Neutrophil
Entries annotated with measured inhibition at 10 µg/mL
Respond with the bare value in %.

>>> measurement("C=C1C[C@H](OC(C)=O)[C@H](OC(C)=O)[C@]2(C)[C@@H](OC(C)=O)C[C@@]3(O)O[C@]4([C@@H](C)C(=O)O[C@H]4[C@@H](Cl)C3=C)[C@@H](OC(C)=O)[C@@H]12 (relative stereo) [FRAJUNOLIDE F]")
7.4
>>> measurement("C=C1C[C@H](OC(C)=O)[C@H](OC(C)=O)[C@]2(C)[C@@H](OC(C)=O)/C=C/C(=C)[C@H](Cl)[C@@H]3OC(=O)[C@H](C)[C@@]3(O)[C@@H](OC(C)=O)[C@@H]12 (relative stereo) [FRAJUNOLIDE H]")
-1.9
>>> measurement("C=C1CC[C@H](OC(C)=O)[C@]2(C)[C@@H](OC(=O)COC(=O)CC(C)C)/C=C\\C(=C)[C@H](Cl)[C@@H]3OC(=O)[C@H](C)[C@@]3(O)[C@@H](OC(C)=O)[C@@H]12 (relative stereo) [FRAJUNOLIDE K]")
2.4

For C=C1/C=C/[C@H](OC(C)=O)[C@@]2(C)[C@@H](OC(C)=O)[C@@H](OC(C)=O)C[C@]3(CO3)[C@@H]2[C@H](OC(C)=O)[C@]2(O)[C@@H](C)C(=O)O[C@H]2[C@H]1Cl (relative stereo) [FRAJUNOLIDE I] the compound record lists inhibition at 10 µg/mL as -10.3

// data source = ChEMBL document CHEMBL1156664
